Source listed as PubChem BioAssay (Tox21).

Assay: qHTS assay to identify small molecule agonists of the estrogen related receptor signaling pathway with the pleiotropic PPARgamma coactivator (PGC) from Tox21 10K library (AID 1224842); also: nearly all actives have a fitted effect of over 15% in size
Details: PGC/ERR reporter cell line, luciferase ONE-Glo, 18 h; series mostly up to 92.4 µM
Inconclusive results are not listed. Active and inactive are the calls of the source. Calls follow the shape of the dose curve; as a rule, active = well fitted activation curve with a large enough effect in the repeat runs; inconclusive = weak or mixed curves, or effect the other way; inactive = no such curve, though single readings can be large or run the other way.
Classes used: active, inactive

[
  {
    "Molecule": "O=C(c1ccccc1)c1ccc(O)cc1",
    "Group": "inactive"
  },
  {
    "Molecule": "COc1cc(NS(=O)(=O)c2ccc(N)cc2)nc(C)n1",
    "Group": "inactive"
  },
  {
    "Molecule": "OCC(CO)n1cnc(-c2ccc(F)cc2)c1-c1ccnc(Oc2ccccc2)n1",
    "Group": "inactive"
  },
  {
    "Molecule": "CCCCCCCC(=O)OCCCCCC",
    "Group": "inactive"
  },
  {
    "Molecule": "CCNc1nc(N)nc(Cl)n1",
    "Group": "inactive"
  },
  {
    "Molecule": "CC(C)N=C=NC(C)C",
    "Group": "inactive"
  },
  {
    "Molecule": "CCCCCCCC(=O)Oc1c(Br)cc(C#N)cc1Br",
    "Group": "inactive"
  },
  {
    "Molecule": "COC1CCC=CO1 (stereo not given)",
    "Group": "inactive"
  },
  {
    "Molecule": "O=[N+]([O-])c1ccc2ncccc2c1",
    "Group": "inactive"
  },
  {
    "Molecule": "COc1ccc(C2C(=O)c3ccccc3C2=O)cc1",
    "Group": "active"
  },
  {
    "Molecule": "CC(=O)Oc1cccc(O)c1",
    "Group": "inactive"
  },
  {
    "Molecule": "O=[N+]([O-])C1(Br)COCOC1",
    "Group": "inactive"
  },
  {
    "Molecule": "CC(C)CC(O)CC(C)C",
    "Group": "inactive"
  },
  {
    "Molecule": "Nc1c(Cl)cc(Cl)cc1[N+](=O)[O-]",
    "Group": "active"
  },
  {
    "Molecule": "CCCCOC(=O)CCCCC(=O)OCCCC",
    "Group": "inactive"
  }
]

* * *

Assay: qHTS assay to identify small molecule antagonists of the estrogen receptor alpha (ER-alpha) signaling pathway - cell viability counter screen (AID 743074);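 also: HEK293 cells carrying ER-alpha-UAS-bla reporter stimulated with 17beta-estradiol; nearly all actives have a fitted effect of over 45% in size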
Conditions: ERalpha-bla HEK293 viability, CellTiter-Glo luminescence, 18 h; series mostly up to 69.4 µM
Results filed as inconclusive are left out. Active and inactive are the calls of the source. Calls follow the shape of the full dose curve.
Classes used: active, inactive

[
  {
    "Compound": "NC(=O)CCCCC(N)=O",
    "Group": "inactive"
  },
  {
    "Compound": "Cc1ccccc1S(N)(=O)=O",
    "Group": "inactive"
  },
  {
    "Compound": "CC(=O)OC(C)C[N+](C)(C)C (centres undefined)",
    "Group": "inactive"
  },
  {
    "Compound": "CCCCOC(=O)CCCCC(=O)OCCCC",
    "Group": "inactive"
  },
  {
    "Compound": "CC(C)CC(O)CC(C)C",
    "Group": "inactive"
  },
  {
    "Compound": "CC[C@@H](CO)NCCN[C@@H](CC)CO",
    "Group": "inactive"
  },
  {
    "Compound": "CC(=O)C(C)=O",
    "Group": "inactive"
  },
  {
    "Compound": "CC(C)C(=O)OCCOc1ccccc1",
    "Group": "inactive"
  },
  {
    "Compound": "C=C(C)C(=O)OCCC(F)(F)C(F)(F)C(F)(F)C(F)(F)C(F)(F)C(F)(F)F",
    "Group": "inactive"
  },
  {
    "Compound": "Cc1ccc2nc(N)[nH]c(=O)c2c1Sc1ccncc1",
    "Group": "active"
  },
  {
    "Compound": "O=c1[nH]c2cc(C(F)(F)F)c(N3CCOCC3)cc2n(CP(=O)(O)O)c1=O",
    "Group": "inactive"
  },
  {
    "Compound": "CSSc1ccoc1C",
    "Group": "inactive"
  },
  {
    "Compound": "Cc1ccc(Nc2c(F)cccc2Cl)c(CC(=O)O)c1",
    "Group": "inactive"
  },
  {
    "Compound": "O=C(O)CCS",
    "Group": "inactive"
  }
]
